UniProt P25021 data, read-out Ki
Sequence (P25021 whole entry): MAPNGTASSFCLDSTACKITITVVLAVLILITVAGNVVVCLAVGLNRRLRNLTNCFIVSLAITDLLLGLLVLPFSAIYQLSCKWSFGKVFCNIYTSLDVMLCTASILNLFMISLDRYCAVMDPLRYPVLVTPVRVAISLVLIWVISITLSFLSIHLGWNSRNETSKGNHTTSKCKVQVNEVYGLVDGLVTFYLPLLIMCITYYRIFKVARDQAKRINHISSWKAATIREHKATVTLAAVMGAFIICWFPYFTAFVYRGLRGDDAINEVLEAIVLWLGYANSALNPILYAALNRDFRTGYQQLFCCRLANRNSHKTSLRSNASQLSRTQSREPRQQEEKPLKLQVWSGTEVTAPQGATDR

SMILES_STR: C[C@@H]1CCCN1CCN1CCc2cc(-c3ccc(C(=O)N4CCCC4)cc3)ccc2C1=O
Ki: > 10 µM
--
SMILES_STR: CCNC(=O)c1ccc(-c2ccc3c(c2)CCN(CCN2CCC[C@H]2C)C3=O)cc1
Ki: > 10 µM
--
SMILES_STR: CN(C)C(=O)c1ccc(-c2ccc3c(c2)CCN(CCN2CCCC2)C3=O)cc1
Ki: > 55 µM
--
SMILES_STR: C[C@H]1CCCN1C(=O)c1ccc(-c2ccc3c(c2)CCN(CCN2CCCC2)C3=O)cc1
Ki: > 10 µM
--
SMILES_STR: O=C(NC1CCCC1)c1ccc(-c2ccc3c(c2)CCN(CCN2CCCC2)C3=O)cc1
Ki: > 10 µM

Provenance of the data: ChEMBL document CHEMBL2029265
